Source: ChEMBL document CHEMBL3124847

# Assay Text: Solubility of the compound in buffer at 10 uM after 90 mins by HPLC analysis
# Assay type: physicochemical

{"Mol Smiles": "CC1(C)CC[C@]2(C(=O)OCCCOc3ccccc3)CC[C@]3(C)C(=CC[C@@H]4[C@@]5(C)C[C@@H](O)[C@H](O)C(C)(C)[C@@H]5CC[C@]43C)[C@@H]2C1", "solubility at 1.5 h, 10 µM, µM": 110}

###

# System: MCF7
# Assay Text: Cytotoxicity against human MCF7 cells after 96 hrs by SRB assay
# Format: functional, cell-based
# Conditions: MCF7, 96 h
Observation Type: IC50 (µM)

{"Mol Smiles": "CC1(C)CC[C@]2(C(=O)OCCCOc3ccccc3)CC[C@]3(C)C(=CC[C@@H]4[C@@]5(C)C[C@@H](O)[C@H](O)C(C)(C)[C@@H]5CC[C@]43C)[C@@H]2C1", "Observation Type": "IC50", "Unit Name": "µM", "Reported": 13.6}
